# reported SPOT peptide array binding signal intensity; entries follow
Biological target: ScSho1
Assay: SPOT peptide array binding signal intensity (averaged, normalized) (arbitrary units (background-subtracted, floor 0; scale differs between SH3 domains)); higher = stronger binding of the SH3 domain to the peptide

Query: Quick check: SPOT peptide array binding signal intensity of `EAEEAAPQLPSRSSA` ?
Reply: ≤ 0

Query: Quick check: SPOT peptide array binding signal intensity of `IPSRPAPKPPSSASA` ?
Reply: ≤ 0

Query: Quick check: SPOT peptide array binding signal intensity of `MSPLGAPPPPPHKDH` ?
Reply: ≤ 0

Okay, next one:
Query: Quick check: SPOT peptide array binding signal intensity of `SRSKPLPLTPNSKYN` ?
Reply: 3960

Data origin, for the record: the supplement of paper PMC4466140
